compounds and their reported increase in mean survival time
Test system: Plasmodium berghei
assay protocol: Increase in mean survival time in Plasmodium berghei inoculated mice (Mus musculus) following 40 mg/kg administration
Assay type: functional
Entry rule: numbers only, all in days.

// worked examples, increase in mean survival time included
C/C(=N\N=C(/S)N1CCN(c2ccccc2)CC1)c1cccc[n+]1[O-]: 0.1
C/C(=N\N=C(/S)N1CCN(C=O)CC1)c1cccc[n+]1[O-]: -0.3
C/C(=N\N=C(/S)N1CC(C)OC(C)C1)c1cccc[n+]1[O-] (stereo unspecified): 4.9

Reported Plasmodium berghei increase in mean survival time for item CC(N/N=C(\S)N1CC2CCC(CC2)C1)c1cccc[n+]1[O-] (stereo unspecified) was -0.3

// assay Plasmodium berghei, entry "C/C(=N\N=C(/S)N1CCCCC1)c1cccc[n+]1[O-]" , increase in mean survival time value = 3.5

Item "C/C(=N\N=C(/S)N1CCC(C)CC1)c1cccc[n+]1[O-]" ; assay system Plasmodium berghei; increase in mean survival time reported as 0.6
